Tested on: COG-LL-402h
experimental_protocol: selective drug sensitivity score (sDSS, relative to normal bone marrow) (sDSS (score)); higher = more potent and effective on the cell line relative to normal bone marrow cells;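 also: ALL cell lines in 384-well plates, five doses spanning 10,000-fold, each plate scaled between vehicle and 100 µmol/L benzalkonium chloride controls, sDSS an adapted area-under-curve metric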
assay_setup: 72 h
Entries and their selective drug sensitivity score
observed_property: selective drug sensitivity score

1) COC12C(COC(N)=O)C3=C(C(=O)C(C)=C(N)C3=O)N1CC1NC12 (stereo in doubt) [Mitomycin_C] (top concentration 10000 nM) ... -2.86
2) O=C(/C=C/c1cccc(S(=O)(=O)Nc2ccccc2)c1)NO [Belinostat] (top concentration 10000 nM) ... 12.6
3) CN1CC[C@@H](NC(=O)Nc2ccc(C#N)cc2)C[C@@H]1c1nc2ccccc2[nH]1 [Glasdegib] (top concentration 1000 nM) ... 0
4) Clc1ccc(C(c2ccccc2Cl)C(Cl)Cl)cc1 (centres undefined) [Mitotane] (top concentration 10000 nM) ... -0.08
5) C[C@@H](Nc1cc(F)cc(F)c1)c1cc(C(=O)N(C)C)cc2c(=O)cc(N3CCOCC3)oc12 [AZD-8186] (top concentration 1000 nM) ... 5.14
6) COc1cccc2c1C(=O)c1c(O)c3c(c(O)c1C2=O)C[C@@](O)(C(=O)CO)C[C@@H]3O[C@H]1C[C@H](N)[C@@H](O)[C@H](C)O1 [Epirubicin] (top concentration 1000 nM) ... 14.9
7) Cc1nc(Nc2n[nH]c3c2CN(C(=O)N[C@H](CN(C)C)c2ccccc2)C3(C)C)c2sccc2n1 (top concentration 10000 nM) ... 6.18
8) Cn1cnc2c(F)c(Nc3ccc(Br)cc3Cl)c(C(=O)NOCCO)cc21 [Selumetinib] (top concentration 10000 nM) ... -2.3
9) CC(C)[C@@H](CS(=O)(=O)C(C)C)N1C(=O)[C@@](C)(CC(=O)O)C[C@H](c2cccc(Cl)c2)[C@H]1c1ccc(Cl)cc1 [AMG-232] (top concentration 10000 nM) ... 9.26
10) Cc1nc2cccc(N)c2c(=O)n1C1CCC(=O)NC1=O (centres undefined) [Avadomide (CC122)] (top concentration 10000 nM) ... 0.2
11) Cc1[nH]nc(C(F)(F)F)c1Cc1sc2c(c1C(=O)N1C[C@](C)(O)CO1)c(=O)n(C)c(=O)n2C(C)C [AZD3965] (top concentration 1000 nM) ... 0
12) CC(=O)O[C@]1(C(C)=O)CC[C@H]2[C@@H]3C=C(C)C4=CC(=O)CC[C@]4(C)[C@H]3CC[C@@]21C [Megestrol_acetate] (top concentration 10000 nM) ... -0.38
13) C[C@H]1C[C@@H](n2c(Nc3ccc(OC(F)(F)F)cc3)nc3cc(CCC(=O)O)ccc32)CC(C)(C)C1 (top concentration 10000 nM) ... -0.14
14) Nc1ncnc2c1nc(N)n2[C@@H]1O[C@H](CO)[C@@H](O)[C@H]1O [8-amino-adenosine] (top concentration 50000 nM) ... 5.78

----------
Test system: HPB-ALL
experimental_protocol: selective drug sensitivity score (sDSS, relative to normal bone marrow) (sDSS (score)); higher = more potent and effective on the cell line relative to normal bone marrow cells
assay_setup: 72 h
observed_property: selective drug sensitivity score

1. FC(F)(F)c1ccc(CNc2ccc(Cc3c[nH]c4ncc(Cl)cc34)cn2)cn1 [Pexidartinib] (top concentration 10000 nM) ... -1.92
2. Clc1ccc(C(c2ccccc2Cl)C(Cl)Cl)cc1 (centres undefined) [Mitotane] (top concentration 10000 nM) ... 5.12
3. CC1(C)CCC(CN2CCN(c3ccc(C(=O)NS(=O)(=O)c4ccc(NCC5CCOCC5)c([N+](=O)[O-])c4)c(Oc4cnc5[nH]ccc5c4)c3)CC2)=C(c2ccc(Cl)cc2)C1 [Venetoclax] (top concentration 1000 nM) ... -0.9
4. c1cn2cc(-c3ccc4cn[nH]c4c3)nc(Nc3ccc(N4CCOCC4)cc3)c2n1 [Entospletinib] (top concentration 5000 nM) ... -0.64
5. Cc1nc2cccc(N)c2c(=O)n1C1CCC(=O)NC1=O (centres undefined) [Avadomide (CC122)] (top concentration 10000 nM) ... 0
6. O=C1NC(=O)[C@@H](c2cn3c4c(cccc24)CCC3)[C@@H]1c1c[nH]c2ccccc12 [Tivantinib] (top concentration 1000 nM) ... 2.88
7. Cc1[nH]nc(C(F)(F)F)c1Cc1sc2c(c1C(=O)N1C[C@](C)(O)CO1)c(=O)n(C)c(=O)n2C(C)C [AZD3965] (top concentration 1000 nM) ... 0.1
8. Cn1cc(-c2ccc(F)c(C(F)(F)F)c2)nc1C1CCN(c2ncnc3[nH]ncc23)CC1 (top concentration 10000 nM) ... -0.14
9. CON(C)C(=O)N1N=C(c2cc(F)ccc2F)S[C@@]1(CCCN)c1ccccc1 [Filanesib] (top concentration 1000 nM) ... 20.3
10. CO[C@H]1C[C@@H]2CC[C@@H](C)[C@@](O)(O2)C(=O)C(=O)N2CCCC[C@H]2C(=O)O[C@H]([C@H](C)C[C@@H]2CC[C@@H](O)[C@H](OC)C2)CC(=O)[C@H](C)/C=C(\C)[C@@H](O)[C@@H](OC)C(=O)[C@H](C)C[C@H](C)/C=C/C=C/C=C/1C [Sirolimus] (top concentration 100 nM) ... -2.46
11. O=C(Nc1nc2cccc(-c3ccc(CN4CCS(=O)(=O)CC4)cc3)n2n1)C1CC1 [Filgotinib] (top concentration 10000 nM) ... -1.34
12. O=C(Nc1ccc2[nH]nc(-c3ccncc3)c2c1)[C@@H]1CCN(CC(=O)N2CCN(c3ccc(-c4ncccn4)cc3)CC2)C1 (top concentration 10000 nM) ... -0.44
13. Cn1cc(CNCC2CCN(c3ncc(C(=O)NO)cn3)CC2)c2ccccc21 [Quisinostat] (top concentration 1000 nM) ... 6.88
14. CONC(=O)c1ccccc1Nc1cc(Nc2cc(C)nn2C(C)C)ncc1Cl (top concentration 1000 nM) ... -0.94
15. O=C(/C=C/c1cccc(S(=O)(=O)Nc2ccccc2)c1)NO [Belinostat] (top concentration 10000 nM) ... 8.4
16. Nc1ncnc2c1nc(N)n2[C@@H]1O[C@H](CO)[C@@H](O)[C@H]1O [8-amino-adenosine] (top concentration 50000 nM) ... -3.82
17. Nc1cc(F)ccc1NC(=O)c1ccc(CNC(=O)/C=C/c2cccnc2)cc1 [Tucidinostat] (top concentration 10000 nM) ... 3.44
18. CC[C@@H]1CN(C(=O)NCC(F)(F)F)C[C@@H]1c1cnc2cnc3[nH]ccc3n12 [Upadacitinib] (top concentration 10000 nM) ... -7.16
19. O=C(Nc1cnn2ccc(N3CCC[C@@H]3c3cc(F)ccc3F)nc12)N1CC[C@H](O)C1 [Larotrectinib] (top concentration 1000 nM) ... 4.18
20. Cc1c(-c2c(-c3ccc(F)o3)sc3ncnc(O[C@H](Cc4ccccc4OCc4ccnn4CC(F)(F)F)C(=O)O)c23)ccc(OCCN2CCN(C)CC2)c1Cl (top concentration 1000 nM) ... -2.44
21. O=C(O)CCCCC(CCSCc1ccccc1)SCc1ccccc1 (centres undefined) [Devimistat (CPI-613)] (top concentration 10000 nM) ... 0
22. O=C(Nc1cc(Cl)cc2c1[nH]c1cnccc12)c1cccnc1 [PS-1145] (top concentration 25000 nM) ... -0.46
23. CNC(=O)[C@@H](NC(=O)[C@H](CC(C)C)[C@H](O)C(=O)NO)C(C)(C)C [Marimastat] (top concentration 10000 nM) ... -1.08
24. CNC(=O)c1cccc(-c2ccc3c(N4CCOC[C@@H]4C)nc(N4CCOC[C@@H]4C)nc3n2)c1 [Vistusertib] (top concentration 10000 nM) ... 1.12

----------
System: ALL-PO
experimental_protocol: selective drug sensitivity score (sDSS, relative to normal bone marrow) (sDSS (score)); higher = more potent and effective on the cell line relative to normal bone marrow cells
assay_setup: 72 h
observed_property: selective drug sensitivity score

1. CC1(C)C(C(=O)Nc2ccc(S(=O)(=O)c3ccc(NC(=O)C4C(C)(C)C4(C)C)cc3)cc2)C1(C)C [BRD7116] (top concentration 10000 nM) ... -0.24
2. O=C(CCCCCCNC(=O)c1cnc(N(c2ccccc2)c2ccccc2)nc1)NO [Rocilinostat] (top concentration 10000 nM) ... 5.84
3. O=c1[nH]c(=O)n([C@H]2C[C@H](O)[C@@H](CO)O2)cc1C(F)(F)F [Trifluridine] (top concentration 10000 nM) ... 20
4. CO[C@@H]1[C@H](N(C)C(=O)c2ccccc2)C[C@H]2O[C@]1(C)n1c3ccccc3c3c4c(c5c6ccccc6n2c5c31)C(=O)NC4 [Midostaurin] (top concentration 10000 nM) ... 14.8
5. CO[C@H]1C[C@@H]2CC[C@@H](C)[C@@](O)(O2)C(=O)C(=O)N2CCCC[C@H]2C(=O)O[C@H]([C@H](C)C[C@@H]2CC[C@@H](O)[C@H](OC)C2)CC(=O)[C@H](C)/C=C(\C)[C@@H](O)[C@@H](OC)C(=O)[C@H](C)C[C@H](C)/C=C/C=C/C=C/1C [Sirolimus] (top concentration 100 nM) ... 0.14
